target: wild-type BF (Geobacillus stearothermophilus); format: biochemical, Bacillus stearothermophilus; details: 5 mM metal ion, 55° C., pH 8.8
Sequence (P52026 other isoform, or with tags, fused parts or gaps with the stated changes): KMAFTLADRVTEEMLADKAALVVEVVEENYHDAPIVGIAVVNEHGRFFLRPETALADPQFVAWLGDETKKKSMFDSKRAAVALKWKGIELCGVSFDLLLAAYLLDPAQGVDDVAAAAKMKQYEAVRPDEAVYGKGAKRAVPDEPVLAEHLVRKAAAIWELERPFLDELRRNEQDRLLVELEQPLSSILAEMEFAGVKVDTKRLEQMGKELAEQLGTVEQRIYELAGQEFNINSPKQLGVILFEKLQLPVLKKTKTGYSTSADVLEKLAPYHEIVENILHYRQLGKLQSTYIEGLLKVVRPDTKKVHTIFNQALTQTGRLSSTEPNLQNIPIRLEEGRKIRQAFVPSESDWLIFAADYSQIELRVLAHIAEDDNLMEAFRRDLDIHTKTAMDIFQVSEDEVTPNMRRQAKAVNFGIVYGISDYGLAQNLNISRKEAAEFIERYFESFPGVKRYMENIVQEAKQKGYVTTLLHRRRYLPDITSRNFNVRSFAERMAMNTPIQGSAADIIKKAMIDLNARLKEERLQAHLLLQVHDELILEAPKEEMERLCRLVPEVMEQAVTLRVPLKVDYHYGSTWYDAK
assay.metric: Kinetics of 3′-amino primer extension vs. absence of added divalent metals

[Ca+2] [Ca^2+]: faster
[Mg+2] [Mg^2+]: faster
[Ba+2] [Ba^2+]: faster
[Sr+2] [Sr^2+]: faster
